Tested on: Phaseolus vulgaris
Protocol details: Phytotoxicity against Phaseolus vulgaris (white beans) assessed as crop injury
Format: organism-based
Condition: in vivo
Measured quantity: Activity (%)

Molecule: CCc1cccc(CC)c1N(COC)C(=O)CCl
Tested on: Phaseolus vulgaris
Uom: %
Obs value: 6
--
Molecule: CON(C)C(=O)Nc1ccc(Cl)c(Cl)c1
Tested on: Phaseolus vulgaris
Uom: %
Obs value: 49
--
Molecule: CCc1cnc(C2=NC(C)(C(C)C)C(=O)N2)c(C(=O)O)c1 (centres undefined)
Tested on: Phaseolus vulgaris
Uom: %
Obs value: 11
--
Molecule: C#CCN1C(=O)COc2cc(F)c(N3C(=O)C4=C(CCCC4)C3=O)cc21
Tested on: Phaseolus vulgaris
Uom: %
Obs value: 17
